pIC50 overview
Tested on: MDA-MB-231
Protocol notes: Antitumor activity against human MDA-MB-231 cells assessed as inhibit cell proliferation incubated for 72 hrs by CCK-8 assay
Assay type: functional, cell-based
Test settings: MDA-MB-231, 72 h
Keep in mind that pIC50 stands for -log10 of concentration in molar terms.

test_smiles=COc1ccccc1C(=O)Nc1cccc(-c2oc3cc(-c4ccc(F)cc4)ccc3c(=O)c2O)c1 assayed_system=MDA-MB-231 observed_result=5.29
test_smiles=O=C(Nc1cccc(-c2oc3cc(-c4ccc(F)cc4)ccc3c(=O)c2O)c1)c1ccc(F)cc1F assayed_system=MDA-MB-231 observed_result=4.95
test_smiles=O=C(Nc1cccc(-c2oc3cc(-c4ccc(F)cc4)ccc3c(=O)c2O)c1)c1ccccc1F assayed_system=MDA-MB-231 observed_result=5.14
test_smiles=O=C(Nc1cccc(-c2oc3cc(-c4ccc(F)cc4)ccc3c(=O)c2O)c1)c1ccc(Cl)cc1 assayed_system=MDA-MB-231 observed_result=4.89
test_smiles=O=C(Nc1cccc(-c2oc3cc(-c4ccc(F)cc4)ccc3c(=O)c2O)c1)c1ccc(-c2ccccc2)cc1 assayed_system=MDA-MB-231 observed_result=4.20

Req: # get_value(readout= pIC50, system= MDA-MB-231) for COc1ccc(C(=O)Nc2cccc(-c3oc4cc(-c5ccc(F)cc5)ccc4c(=O)c3O)c2)c(F)c1
Resp: 4.76

Req: Further, for Cc1cc(C)cc(C(=O)Nc2cccc(-c3oc4cc(-c5ccc(F)cc5)ccc4c(=O)c3O)c2)c1 ?
Resp: 4.92

Req: Further, for COc1cc(OC)cc(C(=O)Nc2cccc(-c3oc4cc(-c5ccc(F)cc5)ccc4c(=O)c3O)c2)c1 ?
Resp: 5.39

====

Tested on: HepG2
Protocol notes: Antitumor activity against human HepG2 cells assessed as inhibit cell proliferation incubated for 72 hrs by CCK-8 assay
Type: functional, cell-based
Test settings: HepG2, 72 h
log10 IC50 overview
Could you please treat all values as log10 of IC50 in µM?

Reference set (3 entries):
test_smiles=O=C(Nc1cccc(-c2oc3cc(-c4ccc(F)cc4)ccc3c(=O)c2O)c1)c1ccccc1F observed_result=1.00
test_smiles=O=C(Nc1cccc(-c2oc3cc(-c4ccc(F)cc4)ccc3c(=O)c2O)c1)c1ccc([N+](=O)[O-])cc1 observed_result=0.27
test_smiles=O=C(Nc1cccc(-c2oc3cc(-c4ccc(F)cc4)ccc3c(=O)c2O)c1)c1ccc(Br)cc1 observed_result=1.14

Req: Give the measured log10 IC50 of COc1cc(OC)cc(C(=O)Nc2cccc(-c3oc4cc(-c5ccc(F)cc5)ccc4c(=O)c3O)c2)c1 .
Resp: 1.37

Req: Further, for COc1cccc(C(=O)Nc2cccc(-c3oc4cc(-c5ccc(F)cc5)ccc4c(=O)c3O)c2)c1 ?
Resp: 1.00

Req: Further, for O=C(Nc1cccc(-c2oc3cc(-c4ccc(F)cc4)ccc3c(=O)c2O)c1)c1ccc(Cl)cc1 ?
Resp: 1.04

====

log10 of IC50 overview
Test system: HepG2
Protocol notes: Antitumor activity against human HepG2 cells assessed as inhibit cell proliferation incubated for 72 hrs by CCK-8 assay
Format: functional, cell-based
Test settings: HepG2, 72 h
Could you please treat all values as log10 of IC50 in µM?

compound=Cc1ccc(C(=O)Nc2cccc(-c3oc4cc(-c5ccc(F)cc5)ccc4c(=O)c3O)c2)cc1 quantity="log10 of IC50" observed_result=0.37
compound=N#Cc1ccc(C(=O)Nc2cccc(-c3oc4cc(-c5ccc(F)cc5)ccc4c(=O)c3O)c2)cc1 quantity="log10 of IC50" observed_result=0.85
compound=COc1ccccc1C(=O)Nc1cccc(-c2oc3cc(-c4ccc(F)cc4)ccc3c(=O)c2O)c1 quantity="log10 of IC50" observed_result=1.16
compound=CCCc1ccc(C(=O)Nc2cccc(-c3oc4cc(-c5ccc(F)cc5)ccc4c(=O)c3O)c2)cc1 quantity="log10 of IC50" observed_result=1.71
compound=O=C(Nc1cccc(-c2oc3cc(-c4ccc(F)cc4)ccc3c(=O)c2O)c1)c1ccc(F)cc1 quantity="log10 of IC50" observed_result=0.97
compound=O=C(Nc1cccc(-c2oc3cc(-c4ccc(F)cc4)ccc3c(=O)c2O)c1)c1ccc(Cl)nc1 quantity="log10 of IC50" observed_result=0.66
compound=COc1ccc(C(=O)Nc2cccc(-c3oc4cc(-c5ccc(F)cc5)ccc4c(=O)c3O)c2)c(F)c1 quantity="log10 of IC50" observed_result=1.66
compound=Cc1ccccc1C(=O)Nc1cccc(-c2oc3cc(-c4ccc(F)cc4)ccc3c(=O)c2O)c1 quantity="log10 of IC50" observed_result=1.29
compound=Cc1cc(C)cc(C(=O)Nc2cccc(-c3oc4cc(-c5ccc(F)cc5)ccc4c(=O)c3O)c2)c1 quantity="log10 of IC50" observed_result=1.13
compound=O=C(Nc1cccc(-c2oc3cc(-c4ccc(F)cc4)ccc3c(=O)c2O)c1)c1ccc(F)cc1F quantity="log10 of IC50" observed_result=1.42

Req: # get_value(readout= log10 of IC50, system= HepG2) for CCc1ccc(C(=O)Nc2cccc(-c3oc4cc(-c5ccc(F)cc5)ccc4c(=O)c3O)c2)cc1
Resp: 1.31

Req: Further, for O=c1[nH]cc(F)c(=O)[nH]1 [FLUOROURACIL] ?
Resp: 0.46

Req: Further, for Cc1cccc(C(=O)Nc2cccc(-c3oc4cc(-c5ccc(F)cc5)ccc4c(=O)c3O)c2)c1 ?
Resp: 1.13

Req: Further, for COc1ccc(C(=O)Nc2cccc(-c3oc4cc(-c5ccc(F)cc5)ccc4c(=O)c3O)c2)cc1 ?
Resp: 0.93

Req: Further, for O=C(Nc1cccc(-c2oc3cc(-c4ccc(F)cc4)ccc3c(=O)c2O)c1)c1ccc(-c2ccccc2)cc1 ?
Resp: 1.95

Req: Further, for O=C(Nc1cccc(-c2oc3cc(-c4ccc(F)cc4)ccc3c(=O)c2O)c1)c1ccc(C(F)(F)F)cc1 ?
Resp: 1.63

====

pIC50 overview
System: MDA-MB-231
Protocol notes: Antitumor activity against human MDA-MB-231 cells assessed as inhibit cell proliferation incubated for 72 hrs by CCK-8 assay
Assay type: functional, cell-based
Test settings: MDA-MB-231, 72 h
Keep in mind that pIC50 stands for -log10 of concentration in molar terms.

test_smiles=O=c1[nH]cc(F)c(=O)[nH]1 observed_result=5.11

Req: Give the measured pIC50 of N#Cc1ccc(C(=O)Nc2cccc(-c3oc4cc(-c5ccc(F)cc5)ccc4c(=O)c3O)c2)cc1 .
Resp: 4.94

Req: Further, for O=C(Nc1cccc(-c2oc3cc(-c4ccc(F)cc4)ccc3c(=O)c2O)c1)c1ccc(F)cc1 ?
Resp: 4.80

Req: Further, for Cc1ccccc1C(=O)Nc1cccc(-c2oc3cc(-c4ccc(F)cc4)ccc3c(=O)c2O)c1 ?
Resp: 5.31

Req: Further, for Cc1ccc(C(=O)Nc2cccc(-c3oc4cc(-c5ccc(F)cc5)ccc4c(=O)c3O)c2)cc1 ?
Resp: 5.36

Req: Further, for COc1ccc(C(=O)Nc2cccc(-c3oc4cc(-c5ccc(F)cc5)ccc4c(=O)c3O)c2)cc1 ?
Resp: 4.78

====

Tested on: HepG2
Protocol notes: Antitumor activity against human HepG2 cells assessed as inhibit cell proliferation incubated for 72 hrs by CCK-8 assay
Format: functional, cell-based
Test settings: HepG2, 72 h
Quantity: pIC50
Keep in mind that pIC50 stands for -log10 of concentration in molar terms.

test_smiles=O=C(Nc1cccc(-c2oc3cc(-c4ccc(F)cc4)ccc3c(=O)c2O)c1)c1cc(F)cc(F)c1 observed_result=5.30

Req: # get_value(readout= pIC50, system= HepG2) for O=C(Nc1cccc(-c2oc3cc(-c4ccc(F)cc4)ccc3c(=O)c2O)c1)c1cccc(F)c1
Resp: 4.81

Req: Further, for Cc1cc(C(=O)Nc2cccc(-c3oc4cc(-c5ccc(F)cc5)ccc4c(=O)c3O)c2)ccc1F ?
Resp: 5.02

====

pIC50 overview
Test system: MDA-MB-231
Protocol notes: Antitumor activity against human MDA-MB-231 cells assessed as inhibit cell proliferation incubated for 72 hrs by CCK-8 assay
Format: functional, cell-based
Test settings: MDA-MB-231, 72 h
Keep in mind that pIC50 stands for -log10 of concentration in molar terms.

Reference set (2 entries):
test_smiles=Cc1cccc(C(=O)Nc2cccc(-c3oc4cc(-c5ccc(F)cc5)ccc4c(=O)c3O)c2)c1 quantity=pIC50 observed_result=5.55
test_smiles=CCc1ccc(C(=O)Nc2cccc(-c3oc4cc(-c5ccc(F)cc5)ccc4c(=O)c3O)c2)cc1 quantity=pIC50 observed_result=5.04

Now consider the entry below.
Req: Give the measured pIC50 of COc1cccc(C(=O)Nc2cccc(-c3oc4cc(-c5ccc(F)cc5)ccc4c(=O)c3O)c2)c1 .
Resp: 5.04

From: ChEMBL document CHEMBL5104204
